Each entry below carries its recorded INHIBITION.
System: Plasmodium berghei
Experiment: Screen against P. berghei liver stage (PbLuc), transformed with Luciferase, at 10uM
Type: functional, HepG2
Settings: tested at 10 uM
About 8,600 (12%) of roughly 69,000 compounds showed an effect of 50% or more. Shown is part of a subset that was picked to be rich in strong results.
Give the value, in units of %, as a plain number.

Endpoint output: INHIBITION of CCOCC1CN(C(=O)C2CCOCC2)Cc2cnn(C)c21 (configuration not stated) . Value? 59.9

# repeat for CCN(CC)S(=O)(=O)c1csc(C(=O)N2CCC(C(N)=O)CC2)c1 49.9

# repeat for Cc1nc2c(c(NC(C)C)n1)CCN(C(=O)c1ccno1)CC2 49.1

# repeat for CNC(=O)[C@@H]1C[C@@H](NC(=O)CCCc2cccs2)CN1C1CCOCC1 10.4

# repeat for Cc1ccc(C(CNC(=O)c2cc(CC(C)C)nn2C)N(C)C)cc1 (configuration not stated) -28.8
